These data points were gathered from PubChem BioAssay.

- assay.info: reduction of polyQ htt aggregates in cells – imaging, exon1htt(103Q)mCFP cells, high-content imaging, primary screen (AID 483);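 further: compound exposure lasted 3 days before fixation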
- cond: exon1htt(103Q)mCFP cell line, aggregate imaging, at 2 µM; active compounds read high
endpoint: inhibition of aggregation (%)
Return type: number; implicit unit %.

* CCOCC(=O)Nc1ccc(S(=O)(=O)N2CCOCC2)cc1 | 16.5

Note to self: inhibition of aggregation recorded for COc1cc(NC(=O)c2nccnc2C(=O)O)cc(OC)c1 was -12.8

// O=C(NCCSCc1ccco1)Nc1cccc(Cl)c1 : inhibition of aggregation value = -7.7

###

In this section, each of the molecules is paired with its reported inhibition of aggregation.
- assay.info: reduction of polyQ htt aggregates in cells – imaging, exon1htt(103Q)mCFP cells, high-content imaging, primary screen (AID 483);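 further: compound exposure lasted 3 days before fixation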
- cond: exon1htt(103Q)mCFP cell line, aggregate imaging, at 2 µM; active compounds read high
State the answer as a number, implicitly in %.

Before answering, review these 6 worked examples.
* CCOC(=O)C1C(=O)OC(C)(C)C1C(C)C(=O)c1ccc(OC)cc1 (stereo unspecified) | -4.2
* O=C(Cc1ccccc1)Nc1nnc(-c2cccs2)s1 | -3.5
* CCn1c(Cc2ccccc2)nnc1SCC(=O)Nc1nc2ccccc2s1 | -25.5
* CCOc1cccc(-c2nnc3n2N=C(c2cc(OC)ccc2OC)CS3)c1 | -30.5
* COc1ccc(NC(=O)N2CCC(O)(c3cccnc3)CC2)c(OC)c1 | 13
* O=S1(=O)CCN2C(=N1)SC1=C2CCN(Cc2ccccc2)C1 | -3.2

Entry COc1ccccc1N1CCN(C/C(O)=C(\C#N)c2nc(-c3ccccc3)cs2)CC1 — recorded inhibition of aggregation = -1.4

The recorded inhibition of aggregation for entry CC1(C)Cc2noc(N)c2C(C)(C)N1OC(=O)c1ccccc1 equals 1.8

COc1cccc(NC(=O)N(CCCN2CCOCC2)C(C)c2cc3cccc(OC)c3o2)c1 (stereo unspecified) yielded inhibition of aggregation of -3.4

get_value(item= Cc1ccc(C)c(N2CCN(CCCNC(=O)Cn3cc4c(n3)CCCCC4)CC2)c1 , readout=inhibition of aggregation) returns -55.1

inhibition of aggregation recorded for this molecule, O=C(Nc1cccc(NC(=O)c2ccco2)c1)c1ccc2c(c1)OCO2 , is -10.2

###

- target.of.assay: Voltage-gated potassium channel subunit beta-2 (Rattus norvegicus) (UniProt P62483)
- Sequence (P62483 whole entry, looked up): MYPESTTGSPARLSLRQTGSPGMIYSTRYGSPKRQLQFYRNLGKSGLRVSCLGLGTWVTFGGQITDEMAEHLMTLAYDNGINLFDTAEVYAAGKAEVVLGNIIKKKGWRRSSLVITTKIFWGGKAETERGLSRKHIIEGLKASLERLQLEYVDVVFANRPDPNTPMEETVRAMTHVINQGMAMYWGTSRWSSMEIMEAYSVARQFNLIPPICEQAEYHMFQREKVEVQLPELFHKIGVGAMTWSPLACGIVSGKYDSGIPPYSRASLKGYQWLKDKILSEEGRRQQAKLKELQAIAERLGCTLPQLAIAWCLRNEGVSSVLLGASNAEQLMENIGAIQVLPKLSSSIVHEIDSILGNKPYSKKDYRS
- assay.info: inhibitors of rat Kvbeta2 reductase activity – biochemical, NADPH fluorescence, primary screen (AID 622);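 further: slope of raw intensity against log time taken from 70 to 1610 s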
- cond: recombinant KvBeta, 4-cyanobenzaldehyde reduction, at 10 µM, active compounds read high
Classify as follows. Reported fluorescence slope greater than or equal to -0.5: true. Reported fluorescence slope below: false.

* O=C(CCN1CCOCC1)Nc1cccc(Br)c1 | true
* CCOC(=O)N1CCN(Cc2nc3c(c(=O)n(C)c(=O)n3C)n2Cc2ccc(F)cc2)CC1 | false
* OC(CN1CCCCC1)Cn1c(C(F)(F)F)nc2ccccc21 (stereo not drawn) | true
* CCC(OC(=O)c1cccs1)C(=O)NCc1ccco1 (stereo not drawn) | true
* O=C1C2C3C=CC(C3)C2C(=O)N1Cc1ccccc1 (stereo not drawn) | false
* COC(=O)c1ccc(NC(=O)C2C3CCC(C3)C2C(=O)O)cc1 (stereo not drawn) | true
* COc1ccc(S(=O)(=O)N2CCN(S(=O)(=O)c3ccc4c(c3)OCCO4)CC2)cc1C | true
* Cc1cccc(OCC(=O)Nc2ccc(N3CCCC3)cc2)c1C | true

Lab note: next compound to report on.
Inquiry: Check the entry CCOc1ccc2nc(Nc3nc4c(c(=O)[nH]3)CCC4)nc(C)c2c1 : does fluorescence slope equal or exceed -0.5?
Reply text: true
